# Test system: μ-specific opiate receptor (Rattus norvegicus, UniProt P33535)
# Construct: Rat forebrains were homogenized and washed; from tissue; host or cells: rat forebrain membranes
# Sequence (P33535 whole entry): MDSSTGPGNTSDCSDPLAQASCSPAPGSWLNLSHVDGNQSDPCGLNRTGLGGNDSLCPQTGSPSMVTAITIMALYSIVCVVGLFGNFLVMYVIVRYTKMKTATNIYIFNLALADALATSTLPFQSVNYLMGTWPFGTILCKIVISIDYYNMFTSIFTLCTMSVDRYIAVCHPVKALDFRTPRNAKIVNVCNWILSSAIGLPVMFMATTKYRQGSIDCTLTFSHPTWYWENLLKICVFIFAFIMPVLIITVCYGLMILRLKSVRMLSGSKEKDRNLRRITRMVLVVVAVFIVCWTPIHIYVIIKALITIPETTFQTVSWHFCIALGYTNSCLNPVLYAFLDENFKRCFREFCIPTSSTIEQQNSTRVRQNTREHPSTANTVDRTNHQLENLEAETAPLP
# Assay method text: in vitro solution-phase radioligand competition assay ([3H]-DAMGO, rat forebrain membranes)
# Format: binding
# Assay context: at 100 nM, 1 nM [3H]-DAMGO, pH 7.5, 1 hr room temperature
Would you mind labelling by inhibition at 0.1 µM? At or over 70% is met, under is not met.

- Compound: "NC(=O)CN(CCc1ccccc1)C(=O)CN(Cc1ccccc1)C(=O)CNCC(c1ccccc1)c1ccccc1"
  Assigned category: "met"
- Compound: "NC(=O)CN(CCc1ccc(O)cc1)C(=O)CN(Cc1ccc2c(c1)OCO2)C(=O)CNCCC(c1ccccc1)c1ccccc1"
  Assigned category: "met"
- Compound: "NC(=O)CN(CCc1ccc(O)cc1)C(=O)CN(Cc1ccc2c(c1)OCO2)C(=O)CNCC=C(c1ccccc1)c1ccccc1"
  Assigned category: "not met"
- Compound: "COc1cc(CN(CC(=O)N(CCc2ccc(O)cc2)CC(N)=O)C(=O)CNCC(c2ccccc2)c2ccccc2)cc(OC)c1OC"
  Assigned category: "met"
- Compound: "NC(=O)CN(CCc1ccc(O)cc1)C(=O)CN(Cc1ccc2c(c1)OCO2)C(=O)C=CCNCC(c1ccccc1)c1ccccc1"
  Assigned category: "not met"
- Compound: "CC(NCC(c1ccccc1)c1ccccc1)C(=O)N(CC(=O)N(CCc1ccc(O)cc1)CC(N)=O)Cc1ccc2c(c1)OCO2 (stereo not shown)"
  Assigned category: "met"
- Compound: "NC(=O)CN(CCc1ccc(O)cc1)C(=O)CN(Cc1ccccc1)C(=O)CNCC(c1ccccc1)c1ccccc1"
  Assigned category: "met"

Reference source: patent US5536853A
